test.summary: Kinetic solubility study
Assay type: physicochemical
study.conditions: PBS pH 7.4 with 1% DMSO, aqueous buffer, kinetic from dmso stock; PBS pH = 7.4, 2 hours, RT, 1% DMSO co-solvent; read-out: Kinetic sol.
quantity.name: solubility kinetic at 2 h (µM)
Your answer should be a plain number; it is taken to be in µM.

Record excerpt, results attached:
CCCOCN(C)C(=O)N[C@H]1CC[C@H](CCN2CCN(c3cccc(Cl)c3Cl)CC2)CC1    32.4
COCN(C)C(=O)N[C@H]1CC[C@H](CCN2CCN(c3cccc(Cl)c3Cl)CC2)CC1    47.7
CCOCN(C)C(=O)N[C@H]1CC[C@H](CCN2CCN(c3cccc(Cl)c3Cl)CC2)CC1    72.7

Now for the molecule whose solubility kinetic at 2 h we want.
Form: molecule = CCCN(C)C(=O)N[C@H]1CC[C@H](CCN2CCN(c3cccc(Cl)c3Cl)CC2)CC1 [Ref. Ex. 1, reference compound] ; solubility kinetic at 2 h = 10.9
